- Test system: OVCAR-3 ovarian
- Protocol: NCI tumour cell line growth inhibition, 48 h; in the data active = GI50 below about 0.43 µM; inactive = the rest
Choose the fitting class; nothing outside 1 (active), 0 (inactive) is accepted.

Can you look up the reported call for C[C@@H](c1ccc2nccn2c1)n1nnc2ncc(-c3cnn(C)c3)nc21 for me? 0

How was Nc1ccn(C=C=CCO)c(=O)n1 classified in this test? 0

Per the assay record, what outcome was assigned to COc1ccc(N(C)c2nc(C)nc3ccccc23)cc1 ? 1

What was the test verdict on Cc1ccc(S(=O)(=O)NC(CCC(=O)Nc2ccc(Cl)cc2)C(=O)Nc2ccc(Cl)cc2)cc1 (stereo not drawn) ? 0

For this compound, state the assay outcome: COC(=O)[C@]12CC[C@@H](C)[C@H](C)[C@@H]1C1=CC[C@@H]3[C@@]4(C)CC(=O)[C@H](O)[C@@]5(C)COC(=C45)C[C@@]3(C)[C@]1(C)CC2 0

Please indicate how the test categorized O=C1/C(=C\c2ccc(Cl)cc2)CN(C(=S)Nc2ccccc2)C/C1=C\c1ccc(Cl)cc1 . 0

Assay result, entry O/N=C1\CCc2cc(-c3nc(C4CCNCC4)[nH]c3-c3ccncc3)ccc21 — outcome? 0

How did this test come out for Cn1cc(-c2ccc(=O)n(Cc3cccc(-c4ncc(OCCN5CCOCC5)cn4)c3)n2)cn1 ? 0

----------
- Tested on: MDA-N
- Protocol: NCI tumour cell line growth inhibition, 48 h
Give TGI for every item shown.

Note down TGI recorded for Cc1nc(-c2ccccc2)c(C)n2c1nc1ccccc12 > 100 µM

Assign TGI to the following record: CC(=O)OC1/C(=C/c2ccc([N+](=O)[O-])cc2)C[C@H]2[C@@H]3CC=C4C[C@@H](OC(C)=O)CC[C@]4(C)[C@H]3CC[C@]12C (stereo partly drawn) > 100 µM

Specify measured TGI for CC12CC3CC/C(=N\O)C(C1)C3(N1CCOCC1)C/C2=N/O (stereo not drawn) . > 100 µM

----------
- Tested on: NCI/ADR-RES ovarian
- Protocol: NCI tumour cell line growth inhibition, 48 h
Exercise: state measured TGI for each of the molecules provided.

Give the value of TGI reported for the following: CNC(=O)OCc1nc(SC(C)C)n(C)c1COC(=O)NC > 100 µM

Give a short answer stating reported TGI for COc1cc(C(=O)O)c([N+](=O)[O-])c(OC)c1OC . > 100 µM

Identify measured TGI corresponding to CC(=O)Oc1ccccc1[C@H]1CC(=O)C[C@H](c2ccccc2OC(C)=O)C12C(=O)c1ccccc1C2=O > 100 µM

----------
- Test system: SK-MEL-5 melanoma
- Protocol: NCI tumour cell line growth inhibition, 48 h
Parameter: TGI

Give the measured TGI for OB([O][Hg][c]1ccccc1)[O][Hg][c]1ccccc1 1.85 µM

Let me know recorded TGI for N#C/C(=C1\N=C(c2ccccc2O)Oc2ccccc21)c1ccc([N+](=O)[O-])cc1 , thanks. > 100 µM

Given the compound O=C1C=C(N2CCCC2)C=C(N2CCCC2)C1 , write its reported TGI. > 100 µM

----------
- Test system: HT29 colon
- Protocol: NCI tumour cell line growth inhibition, 48 h
Parameter: TGI (µM)
The response must be a number in µM with no trailing unit.

For the compound O=C(c1cccs1)c1c(C(F)(F)F)n([O-])c2ccc(C(F)(F)F)cc2[n+]1=O , give its reported TGI. 0.364

Using the record for C1=CN2C[n+]3cccc(OCc4ccccc4)c3N=C2C(OCc2ccccc2)=C1 , state its measured TGI. 47.1

Write down TGI measured for item CC(=O)[CH-]C(=O)c1ccccc1.CC(=O)[CH-]C(=O)c1ccccc1.CCN(CC)CC[O-].CCN(CC)CC[O-].Cl.[Ti+4] 59.6

For the compound CC(CC(=O)CO[C@H]1[C@H](O)[C@@H](O)[C@@H](O)[C@@H]2NC(=O)c3c(cc4c(c3O)OCO4)[C@H]21)OC1OC(CO)C(O)C(O)C1O (stereo partly drawn) , report TGI. 2.32
